Target: T1, 4H331-bA
T1 chain: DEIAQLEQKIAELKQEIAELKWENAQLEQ
Test: two-hybrid library CCNG1;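 also: natural log of median RNA to DNA barcode read ratio; higher means stronger binding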

>  <binder>
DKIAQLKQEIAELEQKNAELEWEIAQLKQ [4H2610-bA]

>  <interaction score>
-0.211

$$$$
>  <binder>
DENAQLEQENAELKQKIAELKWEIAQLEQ [4H1257-bA]

>  <interaction score>
-0.712

$$$$
>  <binder>
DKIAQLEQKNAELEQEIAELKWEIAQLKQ [4H2442-bA]

>  <interaction score>
-1.21

$$$$
>  <binder>
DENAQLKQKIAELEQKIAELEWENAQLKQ [4H1828-bA]

>  <interaction score>
-0.739

$$$$
>  <binder>
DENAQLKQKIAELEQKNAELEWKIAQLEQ [4H1845-bA]

>  <interaction score>
-0.344

$$$$
>  <binder>
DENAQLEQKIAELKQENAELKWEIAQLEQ [4H1369-bA]

>  <interaction score>
-0.963

$$$$
>  <binder>
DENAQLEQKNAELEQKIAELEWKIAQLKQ [4H1446-bA]

>  <interaction score>
1.79

$$$$
